The entries below are paired with their reported IC50.
Molecular target: Programmed cell death protein 1/Programmed cell death 1 ligand 1 (Homo sapiens)
Experiment: Inhibition of human C-terminal Ig-Fc-tagged PD1 (Leu25 to Gln167 residues) expressed in HEK293 cells/human C-terminal epitope-His-tagged PDL1 (Phe19 to Arg238 residues) expressed in HEK293 cells protein-protein interaction preincubated for 15 mins with PDL1 followed by PD1 addition and measured after 15 mins by APC-labeled anti-His antibody/Eu-labeled anti-human IgG based HTRF assay
Format: cell-based
Write the value in nM as a bare number.

The following compounds have reported results that may help.
{"ENTRY_SMILES": "Cc1c(COc2cc(OCc3cccc(C#N)c3)c(CNC(C)(C)C(=O)O)cc2Cl)cccc1-c1ccccc1", "UNITS_OF_MEASURE": "nM", "IC50": 12.5}
{"ENTRY_SMILES": "Cc1c(COc2cc(OCc3cccc(C#N)c3)c(CN3CC[C@H](C(=O)O)C3)cc2Cl)cccc1-c1ccc2c(c1)OCCO2", "UNITS_OF_MEASURE": "nM", "IC50": 7.9}

For record Cc1c(COc2cc(OCc3ccnc(C#N)c3)c(CNC(C)(C)C(=O)O)cc2Cl)cccc1-c1ccc2ocnc2c1 the listed IC50 is 10

====

Assay: AUC (0 to t) in Sprague-Dawley rat at 1 mg/kg, iv by LC-MS/MS analysis
Format: ADME, organism-based
Details: in vivo
EXPERIMENTAL_READOUT: AUC(0-t)

Reported AUC(0-t) ( Cc1c(COc2cc(OCc3cccc(C#N)c3)c(CNC(C)(C)C(=O)O)cc2Cl)cccc1-c1ccccc1 ) = 967 ng·h/mL

====

Molecular target: Programmed cell death protein 1/Programmed cell death 1 ligand 1 (Homo sapiens, UniProt Q9NZQ7)
Sequence (Q15116 whole entry): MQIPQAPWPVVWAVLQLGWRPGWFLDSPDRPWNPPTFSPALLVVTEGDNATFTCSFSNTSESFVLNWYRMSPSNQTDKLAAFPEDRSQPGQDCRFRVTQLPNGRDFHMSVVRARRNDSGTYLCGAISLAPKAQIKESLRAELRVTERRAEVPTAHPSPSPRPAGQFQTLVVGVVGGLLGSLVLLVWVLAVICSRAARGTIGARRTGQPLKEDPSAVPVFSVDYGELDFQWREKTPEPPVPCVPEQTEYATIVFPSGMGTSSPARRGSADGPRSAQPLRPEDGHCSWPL
Sequence (Q9NZQ7 whole entry): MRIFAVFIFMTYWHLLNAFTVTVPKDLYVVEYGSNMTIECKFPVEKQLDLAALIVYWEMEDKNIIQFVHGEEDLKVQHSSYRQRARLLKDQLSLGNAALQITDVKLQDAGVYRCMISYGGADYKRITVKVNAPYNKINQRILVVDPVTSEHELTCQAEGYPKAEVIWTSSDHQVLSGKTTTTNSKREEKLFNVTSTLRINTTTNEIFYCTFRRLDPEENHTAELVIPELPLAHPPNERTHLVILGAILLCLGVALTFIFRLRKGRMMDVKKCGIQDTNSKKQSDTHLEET
Assay: Inhibition of human PD1/PDL1 protein-protein interaction by HTRF assay
Type: protein-complex assay
EXPERIMENTAL_READOUT: IC50

Recorded IC50, per entry:
{"ENTRY_SMILES": "Cc1c(COc2ccc3cc(CNCCO)ccc3c2)cccc1-c1ccccc1", "IC50": "> 10000 nM"}
{"ENTRY_SMILES": "CCN1CCN(Cc2ccc(O)c(C(=O)/C=C/c3cccc(-c4ccccc4)c3C)c2)CC1", "IC50": "14600 nM"}
{"ENTRY_SMILES": "Cc1c(COc2cc(OCc3cccc(C#N)c3)c(CN3CC[C@H](C(=O)O)C3)cc2Cl)cccc1-c1ccc2c(c1)OCCO2", "IC50": "7.9 nM"}
{"ENTRY_SMILES": "Cc1c(COc2cc(OCc3cccc(C#N)c3)c(CN3C[C@@H](O)C[C@H]3C(=O)O)cc2Cl)cccc1-c1cccnc1", "IC50": "> 100 nM"}
{"ENTRY_SMILES": "CC(=O)N1CCN(Cc2ccc(O)c(C(=O)/C=C/c3cccc(-c4ccc5c(c4)OCCO5)c3C)c2)CC1", "IC50": "> 20000 nM"}

Form: molecule = Cc1c(COc2cc(OCc3cccc(C#N)c3)c(CNCCO)cc2Cl)cccc1-c1ccncc1 ; IC50 = > 100 nM

Form field IC50, entry Cc1c(COc2cc(OCc3cccc(C#N)c3)c(CN3CC[C@H](O)C3)cc2Cl)cccc1-c1ccccc1 : 10 to 100 nM

IC50 in this record for Cc1c(COc2cc(OCc3cccc(C#N)c3)c(CN3CC(C(=O)O)C3)cc2Cl)cccc1-c1ccccc1 : 31.2 nM
